Where do the numbers come from? From patent US20170081400A1.

# MEASURED ON: T1, human TL1A extracellular domain with N-terminal HIS and FLAG tag (human, UniProt O95150 72-251)
# T1 construct: the whole entry is named
# T1 sequence: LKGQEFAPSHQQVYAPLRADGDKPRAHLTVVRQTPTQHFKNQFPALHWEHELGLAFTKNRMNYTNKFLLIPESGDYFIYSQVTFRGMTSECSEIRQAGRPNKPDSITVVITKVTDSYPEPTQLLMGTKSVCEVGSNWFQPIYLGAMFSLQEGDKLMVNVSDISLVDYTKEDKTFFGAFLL
# TEST METHOD NOTES: SPR Run 5, Ab from supernatant captured on Protein A, TL1A 5 ug/mL, timepoint 44
TL1A Binding Level (Early) overview
Give just the numeric value; RU need not be written.

See these solved cases before continuing.
- BINDER: "320-417 (antibody, human IgG1, name in Kabat numbering, V domains shown, human IgG1, lambda) VH: QVQLVQSGAEVKKPGASVKVSCKASGYTHTSYDINWVRQAPGQGLEWMGWLNPNSGNTGYAQKFQGRVTMTADRSTSTAYMELSSLRSEDTAVYYCAREVPETAAFEYWGQGTLVTVSS VL: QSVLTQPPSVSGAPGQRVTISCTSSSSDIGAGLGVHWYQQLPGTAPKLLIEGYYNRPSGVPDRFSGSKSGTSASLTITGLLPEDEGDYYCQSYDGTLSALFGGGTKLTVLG"
  UNIT DESCRIPTOR: "RU"
  TL1A Binding Level (Early): 9
- BINDER: "320-423 (antibody, human IgG1, name in Kabat numbering, V domains shown, human IgG1, lambda) VH: QVQLVQSGAEVKKPGASVKVSCKASGYTFSSYDINWVRQAPGQGLEWMGWLNPNSGNTGYAQKFQGRVTMTADRSTSTAYMELSSLRSEDTAVYYCAREVPETAAFEYWGQGTLVTVSS VL: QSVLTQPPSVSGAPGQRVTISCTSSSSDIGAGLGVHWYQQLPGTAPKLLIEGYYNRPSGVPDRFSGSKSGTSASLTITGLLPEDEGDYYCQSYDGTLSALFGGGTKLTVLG"
  UNIT DESCRIPTOR: "RU"
  TL1A Binding Level (Early): 10

Proceed to the following item.
### Prompt Could you share which TL1A Binding Level (Early) value was measured for 320-397 (antibody, human IgG1, name in Kabat numbering, V domains shown, human IgG1, lambda) VH: QVQLVQSGAEVKKPGASVKVSCKASGATFTSYDINWVRQAPGQGLEWMGWLNPNSGNTGYAQKFQGRVTMTADRSTSTAYMELSSLRSEDTAVYYCAREVPETAAFEYWGQGTLVTVSS VL: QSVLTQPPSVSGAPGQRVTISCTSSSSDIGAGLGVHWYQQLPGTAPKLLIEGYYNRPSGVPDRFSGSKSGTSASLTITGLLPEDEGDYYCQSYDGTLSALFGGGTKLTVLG ?
### Response 12
